System: Adenosine A1 receptor
Test: A1-agonist stimulated [35S]GTPγS binding to G proteins
Format: biochemical
Settings: Table 1, compounds of Example 2; normalized to the full agonist CPA
quantity-name: GTPγS (%)

In [3]: df
Out[3]:
                                   compound  measured_result
0  O[C@@H]1[C@H](O)[C@@H](COC(=S)N[C@@H]2CCC[C@H]2O)O[C@H]1n1cnc2c(N[C@@H]3CCOC3)ncnc21 [Compound 63 of Example 2]              100
1  O[C@@H]1[C@H](O)[C@@H](COC(=S)NC2CC2)O[C@H]1n1cnc2c(N[C@@H]3CCOC3)ncnc21 [Compound 59 of Example 2]               82
2  O[C@@H]1[C@H](O)[C@@H](COC(=S)NCc2ccccc2)O[C@H]1n1cnc2c(N[C@@H]3CCOC3)ncnc21 [Compound 54 of Example 2]               93
3  O=C(N[C@H]1CCC[C@@H]1O)OC[C@H]1O[C@@H](n2cnc3c(N[C@@H]4CCOC4)ncnc32)[C@H](O)[C@@H]1O [Compound 61 of Example 2]               59
4  O[C@@H]1[C@H](O)[C@@H](CSC(=S)NC2CCCC2)O[C@H]1n1cnc2c(N[C@@H]3CCOC3)ncnc21 [Compound 75 of Example 2]               91
5  O=C(NC1CCCC1)SC[C@H]1O[C@@H](n2cnc3c(N[C@@H]4CCOC4)ncnc32)[C@H](O)[C@@H]1O [Compound 73 of Example 2]              109
6  O[C@@H]1[C@H](O)[C@@H](COC(=S)N[C@H]2CCC[C@@H]2O)O[C@H]1n1cnc2c(N[C@@H]3CCOC3)ncnc21 [Compound 64 of Example 2]               99
7  CCNC(=S)OC[C@H]1O[C@@H](n2cnc3c(N[C@@H]4CCOC4)ncnc32)[C@H](O)[C@@H]1O [Compound 46 of Example 2]               77

====

Test system: Adenosine A1 receptor
Experiment: A1-agonist stimulated [35S]GTPγS binding to G proteins
Type: biochemical
Conditions: Table 1, compounds of Example 2; normalized to the full agonist CPA
quantity-name: GTPγS (%)

Worked examples follow.
                                   compound  unit_spec  measured_result
0  CNC(=S)NC[C@H]1O[C@@H](n2cnc3c(N[C@@H]4CCOC4)ncnc32)[C@H](O)[C@@H]1O          %              101
1  CNC(=S)OC[C@H]1O[C@@H](n2cnc3c(N[C@@H]4CCOC4)ncnc32)[C@H](O)[C@@H]1O          %               77
2  CCOC(=O)CCNC(=O)OC[C@H]1O[C@@H](n2cnc3c(N[C@@H]4CCOC4)ncnc32)[C@H](O)[C@@H]1O          %               47

a = COC(=O)C1CCCC1NC(=O)OC[C@H]1O[C@@H](n2cnc3c(N[C@@H]4CCOC4)ncnc32)[C@H](O)[C@@H]1O (stereo partly drawn)
b = CCOC(=O)[C@H]1C2C=CC(C2)[C@H]1NC(=O)OC[C@H]1O[C@@H](n2cnc3c(N[C@@H]4CCOC4)ncnc32)[C@H](O)[C@@H]1O (stereo partly drawn)
c = COC(=S)NC[C@H]1O[C@@H](n2cnc3c(N[C@@H]4CCOC4)ncnc32)[C@H](O)[C@@H]1O
Inquiry: Arrange the 3 compounds by rising GTPγS, starting with the smallest. Answer by naming the labels in the order asked.
Reply text: a, b, c
(a: 17%, b: 52%, c: 98%)
